meta.source: patent US8003660B2

target system: M1 muscarinic receptor (Homo sapiens, UniProt P11229)
Construct: expressed in transfected cells; host or cells: CHO (M1-CHO)
Sequence (P11229 whole entry): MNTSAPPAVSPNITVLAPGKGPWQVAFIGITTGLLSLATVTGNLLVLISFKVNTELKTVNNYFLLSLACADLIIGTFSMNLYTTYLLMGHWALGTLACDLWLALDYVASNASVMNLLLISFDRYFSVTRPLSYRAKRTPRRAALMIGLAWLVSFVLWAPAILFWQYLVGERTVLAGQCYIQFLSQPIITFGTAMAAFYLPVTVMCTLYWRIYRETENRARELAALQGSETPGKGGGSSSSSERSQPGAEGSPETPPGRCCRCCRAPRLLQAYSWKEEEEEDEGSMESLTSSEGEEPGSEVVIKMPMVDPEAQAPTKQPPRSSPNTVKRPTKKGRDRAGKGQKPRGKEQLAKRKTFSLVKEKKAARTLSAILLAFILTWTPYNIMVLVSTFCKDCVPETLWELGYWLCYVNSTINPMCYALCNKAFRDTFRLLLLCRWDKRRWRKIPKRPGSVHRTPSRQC
assay name: Functional mobilization of intracellular calcium (FLIPR) in CHO cells expressing M1
Format: cell-based
experimental conditions: CHO; 100% = maximum response obtained with the Carbachol control; read-out: M1 Efficacy
Kindly supply the reported Emax values for the records listed here.

Under M1 muscarinic receptor (Homo sapiens, UniProt P11229): Emax value of CC(=O)N1CCCCC1C(=O)N[C@H]1CCC2(CCN(CCC(C)(C)C)CC2)c2ccccc21 (stereo partly drawn) [compound 41] ? 25 to 100%

Cool, now CC(C)(C)CCN1CCC2(CC[C@H](NC(=O)CC3CCOCC3)c3ccccc32)CC1 [compound 135] 25 to 100%

Cool, now CCN(C(C)=O)[C@H]1CCC2(CCN(CCC(C)(C)C)CC2)c2cc(F)ccc21 [compound 77] 25 to 100%
